Sourced from the supplement of paper PMC3334620

- Assay Target: Yer064c (UniProt P40041)
- Sequence: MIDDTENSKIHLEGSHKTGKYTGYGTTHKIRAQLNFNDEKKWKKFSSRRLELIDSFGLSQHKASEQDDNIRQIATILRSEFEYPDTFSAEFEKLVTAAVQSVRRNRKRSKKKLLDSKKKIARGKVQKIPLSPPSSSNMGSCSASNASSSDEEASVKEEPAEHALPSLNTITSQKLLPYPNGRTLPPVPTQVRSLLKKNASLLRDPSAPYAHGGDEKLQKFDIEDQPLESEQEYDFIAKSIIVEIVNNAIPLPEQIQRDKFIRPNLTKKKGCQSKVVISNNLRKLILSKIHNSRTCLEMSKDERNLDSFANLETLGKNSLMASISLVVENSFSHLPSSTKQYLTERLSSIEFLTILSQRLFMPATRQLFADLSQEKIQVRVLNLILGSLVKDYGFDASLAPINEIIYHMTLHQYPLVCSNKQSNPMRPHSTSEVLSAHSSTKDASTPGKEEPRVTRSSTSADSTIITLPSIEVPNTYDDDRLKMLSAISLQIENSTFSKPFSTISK
- Procedure Text: PBM E-score (8-mer binding enrichment) (E-score (-0.5 to 0.5)); higher = stronger / more preferred TF binding
- Condition Description: protein concentration: 200 nM; construct: GST-full length
In all, about 33,000 sequences were measured (“E-score (-0.5 to 0.5)”: median about -0.036, highest 2% from about 0.37 on). Many of the other results were omitted from the sample, so the highest values are more common in it than they were.
Value Type: PBM E-score
Respond with the number and no other words.

Use these answered entries as a reference point.
{"columns": ["Seq String", "Assay Target", "PBM E-score"],
 "data": [
  ["CGATGTAC", "Yer064c (UniProt P40041)", -0.0701],
  ["CATGACTA", "Yer064c (UniProt P40041)", 0.491],
  ["ACTTTCTG", "Yer064c (UniProt P40041)", 0.208],
  ["GCCGTCGA", "Yer064c (UniProt P40041)", -0.0942],
  ["AGGATGTC", "Yer064c (UniProt P40041)", 0.00214]
]}

Exam item: Quick one: give measured PBM E-score for AAGGGTGT
Marked response: -0.00845

Exam item: Respond only with PBM E-score recorded for CTGACTTC
Marked response: 0.392

Exam item: Could you please provide reported PBM E-score for ACCAGCGG ? Thanks!
Marked response: -0.133

Exam item: Identify the reported PBM E-score for the following entry. CACTTTCG
Marked response: -0.131

Exam item: Look up and state reported PBM E-score for TACTCCGA
Marked response: 0.0904

Exam item: Specify measured PBM E-score for CTGACTCC .
Marked response: 0.46

Exam item: Name the recorded PBM E-score of the sequence listed here: GACTCCGA
Marked response: 0.417

Exam item: Item AATGGAGA : provide PBM E-score
Marked response: -0.0502

Exam item: Give recorded PBM E-score. AGGACTTC
Marked response: 0.201

Exam item: Return value of PBM E-score for input CATGACAA , no commentary.
Marked response: -0.00212

Exam item: Identify measured PBM E-score corresponding to ATTCCATA
Marked response: -0.0291

Exam item: Using known records, supply PBM E-score for ATGACTTC
Marked response: 0.469

Exam item: Answer with the recorded PBM E-score of ACGACTTC only.
Marked response: 0.324

Exam item: Consider the sequence AACTATCC . State its measured PBM E-score.
Marked response: -0.235

----------
# Lookup of reported PBM E-score keyed by entry
- Assay Target: Yer064c (UniProt P40041)
- Sequence: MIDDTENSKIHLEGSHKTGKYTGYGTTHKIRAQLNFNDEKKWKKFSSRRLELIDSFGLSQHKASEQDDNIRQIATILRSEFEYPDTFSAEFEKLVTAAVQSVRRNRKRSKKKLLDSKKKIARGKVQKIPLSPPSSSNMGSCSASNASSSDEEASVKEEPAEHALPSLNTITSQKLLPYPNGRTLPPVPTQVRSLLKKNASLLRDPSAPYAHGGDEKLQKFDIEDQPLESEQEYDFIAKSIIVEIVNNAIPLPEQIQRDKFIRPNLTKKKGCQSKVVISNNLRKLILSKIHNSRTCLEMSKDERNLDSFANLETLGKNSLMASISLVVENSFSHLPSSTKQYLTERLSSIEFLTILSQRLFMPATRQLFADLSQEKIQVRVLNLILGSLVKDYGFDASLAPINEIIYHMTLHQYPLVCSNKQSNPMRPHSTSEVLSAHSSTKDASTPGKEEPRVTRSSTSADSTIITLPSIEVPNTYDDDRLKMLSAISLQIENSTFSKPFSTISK
- Procedure Text: PBM E-score (8-mer binding enrichment) (E-score (-0.5 to 0.5)); higher = stronger / more preferred TF binding
- Condition Description: protein concentration: 200 nM; construct: GST-full length
In all, about 33,000 sequences were measured (“E-score (-0.5 to 0.5)”: median about -0.036, highest 2% from about 0.37 on). This is one part of a sample in which the highest values are shown more often than they occur.
API doc: respond with a numeric literal and nothing else, no unit.

{"columns": ["Seq String", "PBM E-score"],
 "data": [
  ["CCCGCATA", -0.019],
  ["CATAATCC", -0.0164],
  ["AGCCCCCT", -0.382],
  ["ACGCACAG", -0.247],
  ["CGTCAGAC", -0.124]
]}

Exam item: Kindly indicate its recorded PBM E-score. Item: AGTCAGAG
Marked response: 0.428

Exam item: Read the entry GCGCCATA and write its reported PBM E-score.
Marked response: -0.26

Exam item: Supply PBM E-score value. Item: GATAGTAA
Marked response: 0.149

Exam item: Write down PBM E-score measured for item CCCGAGTC
Marked response: 0.329

Exam item: Identify the reported PBM E-score for the following entry. AATAATCA
Marked response: 0.382

Exam item: Determine from records and report PBM E-score for GATAATAA
Marked response: -0.0817

Exam item: Return PBM E-score (reported value) for this sequence: TATAATCA
Marked response: 0.387

----------
Listed sequences paired with reported PBM E-score
- Assay Target: Yer064c (UniProt P40041)
- Sequence: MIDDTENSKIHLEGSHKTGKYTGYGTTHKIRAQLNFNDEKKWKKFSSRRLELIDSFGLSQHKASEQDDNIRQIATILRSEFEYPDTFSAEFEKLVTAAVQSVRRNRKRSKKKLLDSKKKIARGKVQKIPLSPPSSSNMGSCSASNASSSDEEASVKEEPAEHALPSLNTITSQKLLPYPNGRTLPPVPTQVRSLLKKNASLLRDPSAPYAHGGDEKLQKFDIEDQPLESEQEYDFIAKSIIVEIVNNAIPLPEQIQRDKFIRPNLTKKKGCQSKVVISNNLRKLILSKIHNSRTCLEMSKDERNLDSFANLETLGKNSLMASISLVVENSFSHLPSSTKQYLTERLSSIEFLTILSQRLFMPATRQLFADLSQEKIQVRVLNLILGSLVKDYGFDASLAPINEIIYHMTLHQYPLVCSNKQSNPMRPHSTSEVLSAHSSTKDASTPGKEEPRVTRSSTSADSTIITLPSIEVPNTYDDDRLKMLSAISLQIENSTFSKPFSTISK
- Procedure Text: PBM E-score (8-mer binding enrichment) (E-score (-0.5 to 0.5)); higher = stronger / more preferred TF binding
- Condition Description: protein concentration: 200 nM; construct: GST-full length
In all, about 33,000 sequences were measured (“E-score (-0.5 to 0.5)”: median about -0.036, highest 2% from about 0.37 on). The full list was thinned out, with the highest values kept by preference.
// no unit, no text: just the number

Some sequences with known PBM E-score results, for comparison:
{"columns": ["Seq String", "Number"],
 "data": [
  ["CCCCGTAA", -0.0314],
  ["ATTGACTG", 0.275],
  ["TAGAGAGA", 0.0957]
]}

Exam item: Report measured PBM E-score; entry is ACGGACCA
Marked response: -0.125

Exam item: Tell us which PBM E-score value is on record for AGCAAATA
Marked response: -0.157

Exam item: Complete the entry with PBM E-score for ACGTAGTG
Marked response: -0.132

Exam item: Please list PBM E-score recorded for the sequence CGTCTTAC
Marked response: -0.141

Exam item: Give the reported PBM E-score for this sequence. CTTGACCA
Marked response: 0.0717

Exam item: Specify measured PBM E-score for GTGACGGA .
Marked response: -0.0635

Exam item: Note PBM E-score for the sequence shown: AAGACTGG
Marked response: 0.1

Exam item: Return the recorded PBM E-score value; entry: GTTGACTA
Marked response: 0.457
